# target-entity: recombinant human GST-Syk (Homo sapiens (Human), UniProt P43405)
# protocol-details: Homogeneous Time-Resolved Fluorescence (HTRF) assay for the recombinant human Syk enzyme
# run-parameters: recombinant human GST-Syk 5 pM, ATP 25 μM, read-out: rhSyk IC50
measured-quantity: IC50 (nM)
Just the number please, in nM, no unit attached.

>  <compound>
Cc1cc(Nc2cc(C(F)(F)F)ccn2)nc(-c2ccc(C3(O)CCNCC3)nc2)c1

>  <IC50 / nM>
9

$$$$
>  <compound>
Cc1ccnc(Nc2cc(C)cc(-c3ccc(F)nc3)n2)c1

>  <IC50 / nM>
111

$$$$
>  <compound>
Cc1cc(Nc2cc(C(F)(F)F)ccn2)nc(-c2ccc(NC3CCN(C(=O)c4cccnc4)CC3)nc2)c1

>  <IC50 / nM>
2

$$$$
>  <compound>
CCc1ccc(OCC(=O)N2CCC(Nc3ccc(-c4cc(C)cc(Nc5cc(C(F)(F)F)ccn5)n4)cn3)CC2)cc1

>  <IC50 / nM>
39

$$$$
>  <compound>
Cc1cc(Nc2cc(C(F)(F)F)ccn2)nc(-c2ccc(NC3CCN(C(=O)c4cc5ccccc5cn4)CC3)nc2)c1

>  <IC50 / nM>
4

$$$$

Asked: Consider the compound Cc1cc(Nc2cc(C(F)(F)F)ccn2)nc(-c2ccc(NC3CCN(C(=O)c4cnc5ccc(F)cc5c4)CC3)nc2)c1 and give its measured IC50.
Given back: 8

Asked: Consider the compound Cc1cc(Nc2cc(C(F)(F)F)ccn2)nc(-c2ccnc(F)c2)c1 and give its measured IC50.
Given back: 87
